# SYSTEM_TESTED: T1, human CD19 antigen (human, UniProt P15391 20-291, limits assumed)
# T1 sequence (looked up): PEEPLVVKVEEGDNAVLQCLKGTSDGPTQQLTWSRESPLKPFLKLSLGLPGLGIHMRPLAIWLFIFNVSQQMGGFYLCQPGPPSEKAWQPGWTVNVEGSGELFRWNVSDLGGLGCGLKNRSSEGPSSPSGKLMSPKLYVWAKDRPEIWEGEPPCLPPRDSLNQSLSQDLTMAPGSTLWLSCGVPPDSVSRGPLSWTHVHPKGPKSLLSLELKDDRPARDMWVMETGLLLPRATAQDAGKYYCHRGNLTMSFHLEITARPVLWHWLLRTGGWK
# RUN_DESCRIPTION: SPR (Biacore), antibody captured via Fc
VALUE_TYPE: koff (s⁻¹)
Note: unit s⁻¹ is implicit; provide only the numeric part.

Lab note: measured koff of humanized CD19 antibody VH3 + VL1 (antibody, V domains shown, also called Antibody No. 7) VH: QVQLQESGPGLVKPSQTLSLTCTVSGVSLPDYGVSWIRQPPGKGLEWIGVIWGSETTYYNSALKSRLTISKDTSKNQVSLKLSSVTAADTAVYYCAKHYYYGGSYAMDYWGQGTTVTVSS VL: DIQMTQSPSSLSASVGDRVTITCRASQDISKYLNWYQQKPGKAPKLLIYHTSRLHSGVPSRFSGSGSGTDFTFTISSLQPEDIATYYCQQGNTLPYTFGGGTKLEIK was 0.000688

Lab note: measured koff of humanized CD19 antibody VH1 + VL3 (antibody, V domains shown, also called Antibody No. 3) VH: QVQLQESGPGLVKPSQTLSLTCTVSGVSLPDYGVSWIRQPPGKGLEWIGVIWGSETTYYNSALKSRVTISVDTSKNQFSLKLSSVTAADTAVYYCARHYYYGGSYAMDYWGQGTTVTVSS VL: DIQMTQSPSSLSASVGDRVTITCRASQDISKYLNWYQQKPGKAPKLLIYHTSRLHSGVPSRFSGSGSGTDYTLTISSLQPEDIATYYCQQGNTLPYTFGGGTKLEIK was 0.0794

Lab note: measured koff of humanized CD19 antibody VH4 + VL2 (antibody, V domains shown, also called Antibody No. 11) VH: QVQLQESGPGLVKPSQTLSLTCTVSGVSLPDYGVSWIRQPPGKGLEWLGVIWGSETTYYNSALKSRLTISKDTSKNQVSLKLSSVTAADTAVYYCAKHYYYGGSYAMDYWGQGTTVTVSS VL: DIQMTQSPSSLSASVGDRVTITCRASQDISKYLNWYQQKPGKAPKLLIYHTSRLHSGVPSRFSGSGSGTDYTFTISSLQPEDIATYYCQQGNTLPYTFGGGTKLEIK was 0.000605
